Tested on: HBsAg
Conditions: read-out: EC50, Extracell. HBsAg reduction; HepG2.2.15 cells
Strictly below 0.2 nM in EC50: condition met. Otherwise: condition not met.

See these solved cases before continuing.
50 (CGACCGGCUCAACAAGGUUTTAACCUUGUUGAGCCGGUCGTC; siRNA; Self-complementary hairpin strand, chemistry not given here, further chemistry not given here; listed as Homo sapiens) [compound 50] :: condition met
39 (AGAGGAGAAGAAAGAUGAGAAUUUUCUCAUCUUUCUUCUCCUCUUU; siRNA; Self-complementary hairpin strand, chemistry not given here, further chemistry not given here; listed as Homo sapiens) [compound 39] :: condition met
38 (AGUGUACCUGCUGGUGGGGCUUUAGCCCCACCAGCAGGUACACUUU; siRNA; Self-complementary hairpin strand, chemistry not given here, further chemistry not given here; listed as Homo sapiens) [compound 38] :: condition met
43 (GUAUCGAGGCGGACGACGACCUUGGUCGUCGUCCGCCUCGAUACUU; siRNA; Self-complementary hairpin strand, chemistry not given here, further chemistry not given here; listed as Homo sapiens) [compound 43] :: condition met
45 (GGAAAAAACAUUGAAGACGUCUUGACGUCUUCAAUGUUUUUUCCUU; siRNA; Self-complementary hairpin strand, chemistry not given here, further chemistry not given here; listed as Homo sapiens) [compound 45] :: condition met

I wonder whether 35 (GGGAUUUGGCCUUUUUGAUUATTAUCAAAAAGGCCAAAUCCCAUTT; siRNA; Self-complementary hairpin strand, chemistry not given here, further chemistry not given here; listed as Homo sapiens) [compound 35] has EC50 below 0.2 nM. Can you tell?
condition met

I wonder whether 25 (GAUCAAUGCCCUCAUUAAAGCTTUUUAAUGAGGGCAUUGAUCUUTT; siRNA; Self-complementary hairpin strand, chemistry not given here, further chemistry not given here; listed as Homo sapiens) [compound 25] has EC50 below 0.2 nM. Can you tell?
condition not met

I wonder whether 30 (AGGAUAAGAUCAAUGCCCUUCUUGAAGGGCAUUGAUCUUAUCCUUU; siRNA; Self-complementary hairpin strand, chemistry not given here, further chemistry not given here; listed as Homo sapiens) [compound 30] has EC50 below 0.2 nM. Can you tell?
condition not met

I wonder whether 22 (CAUCUACGUGGGUAACUUAUUUAAGUUACCCACGUAGAUGUU; siRNA; Self-complementary hairpin strand, chemistry not given here, further chemistry not given here; listed as Homo sapiens) [compound 22] has EC50 below 0.2 nM. Can you tell?
condition not met

I wonder whether 27 (GGUCUUUUUGACUAAACCUCUTTAGGUUUAGUCAAAAAGACCAATT; siRNA; Self-complementary hairpin strand, chemistry not given here, further chemistry not given here; listed as Homo sapiens) [compound 27] has EC50 below 0.2 nM. Can you tell?
condition met

I wonder whether 23 (CUGGAUAACACUAAGUUUAUUUAAACUUAGUGUUAUCCAGUU; siRNA; Self-complementary hairpin strand, chemistry not given here, further chemistry not given here; listed as Homo sapiens) [compound 23] has EC50 below 0.2 nM. Can you tell?
condition not met

I wonder whether 29 (UGUCUCCGAGCUCGCCUGCAUUUAUGCAGGCGAGCUCGGAGACAUU; siRNA; Self-complementary hairpin strand, chemistry not given here, further chemistry not given here; listed as Homo sapiens) [compound 29] has EC50 below 0.2 nM. Can you tell?
condition not met

I wonder whether 32 (AGAAGAAAGUGGAAGCAAAGAUUUCUUUGCUUCCACUUUCUUCUUU; siRNA; Self-complementary hairpin strand, chemistry not given here, further chemistry not given here; listed as Homo sapiens) [compound 32] has EC50 below 0.2 nM. Can you tell?
condition not met

Each recorded value in this set is attributed to patent US11613750B2.
